Test system: M14
METHOD_DESCRIPTION: NCI tumour cell line growth inhibition, 48 h
Active and inactive are the calls of the source. Rule as the data show it: active = GI50 up to about 1.1 µM and inactive = higher.
Lab note: assign the record to one of true for active, false for inactive

CCOC(=O)CCCOc1cc(-c2ccccc2F)nc2cc3c(cc12)OCO3 :: false

**Q:** Short answer needed: outcome of this test for O=C1CCC2(CC1CC(Sc1ccccc1)Sc1ccccc1)OCCO2 (stereo not given) ?
**A:** false

**Q:** Short answer needed: outcome of this test for CC(=O)[C@@]1(C)CC2(CCN(C)CC2)OC1C (stereo not given in full) ?
**A:** false

**Q:** Short answer needed: outcome of this test for CC(NC(=O)NC(C)(C)C)NC(=O)C(N)CC(=O)O (stereo not given) ?
**A:** false

**Q:** Short answer needed: outcome of this test for `Oc1c(Br)c(-c2ccccc2)nc2ccccc12` ?
**A:** false

**Q:** Short answer needed: outcome of this test for `C/C=C(/C)C(=O)O[C@@H]1c2c(C)coc2C[C@H]2CC[C@H](O)[C@H](C)[C@]21C` ?
**A:** false

**Q:** Short answer needed: outcome of this test for `CN(C)c1ccc(/C=N/n2c(-c3ccccc3)nc3ccccc3c2=O)cc1` ?
**A:** false

**Q:** Short answer needed: outcome of this test for `CC(=O)c1c2c(cc3c1CC1(C3)Cc3cc4c(c(C(C)=O)c3C1)CCCC4)CCCC2` ?
**A:** false

**Q:** Short answer needed: outcome of this test for `c1cc(C[S+]2CCCC2)ccc1C[S+]1CCCC1` ?
**A:** false

**Q:** Short answer needed: outcome of this test for CC(C)[C@]12O[C@H]1[C@@H]1O[C@]13[C@]1(O[C@H]1C[C@H]1C4=C(CC[C@@]13C)C(=O)OC4)[C@@H]2O [TRIPTOLIDE] ?
**A:** true

Data provenance: ChEMBL document CHEMBL1201862
